Biological target: T1, FLAG-tagged human APRIL (human, UniProt O75888 105-250, limits assumed)
T1 construct: also called FLAG-tagged APRIL; FLAG-APRIL; not shown: FLAG tag
T1 sequence (looked up): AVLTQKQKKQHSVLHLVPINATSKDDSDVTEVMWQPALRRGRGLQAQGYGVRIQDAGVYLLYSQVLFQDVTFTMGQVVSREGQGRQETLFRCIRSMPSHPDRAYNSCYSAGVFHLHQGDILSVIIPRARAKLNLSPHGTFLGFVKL
Experiment: ELISA: FLAG-tagged human APRIL captured on anti-FLAG plate, purified antibody titrated
metric_name: pEC50
Notebook: values listed as pEC50 are -log10 of the concentration (mol/L).

## Input Output pEC50 of hAPRIL.01A (antibody, mouse IgG1, kappa, V domains shown, Mouse antibody; also called mouse hAPRIL.01A antibody) VH: EVQLQQSGPELVKPGASVKMSCKASGYTFTSYVMHWVKQKPGQGLEWIGYINPYNDAPKYNEKFKGKATVTSDKSSGTAYMELSSLTSEDSAVYYCARGLGYALYYAMDYWGQGTSVTVSS VL: DIVMTQSQKFKSTSVGDRVSVTCKASQNVGNNVAWYQQKAGQSPKALISSASNRDSGVPDRFTGSGSGTDFTLTISNVQSEDLADYFCQQYNIYPFTFGSGTKLEIKR
## Output 9.80

## Input Assign pEC50 to the following record: VH14_1G.VL15 (antibody, human IgG4 S228P, kappa, V domains shown, VH14_1 with R67K and V68A; Humanized IgG4 (S241P, Kabat) with human kappa; also called 14_1G.15; 14_1 G.15) VH: QVQLVQSGAEVKKPGASVKVSCKASGYTFTSYVMHWVRQAPGQGLEWMGYINPYNDAPKYNEKFKGKATMTSDTSASTAYMELSSLRSDDTAVYYCARGLGYALYYAMDYWGQGTTVTVSS VL: DIVMTQSPSTLSASVGDRVTITCKASQNVGNNVAWYQQKPGKAPKLLISSASNRDSGVPSRFSGSGSGTEFTLTISSLQPDDFATYFCQQYNIYPFTFGQGTKLEIKR
## Output 9.11
